The binders listed here are annotated with their Decreased fold of binding to ligand after Conjugating with S48.
Biological target: T1, IL-10R2-Fc/His (UniProt Q08334 20-220, limits assumed)
T1 sequence (looked up): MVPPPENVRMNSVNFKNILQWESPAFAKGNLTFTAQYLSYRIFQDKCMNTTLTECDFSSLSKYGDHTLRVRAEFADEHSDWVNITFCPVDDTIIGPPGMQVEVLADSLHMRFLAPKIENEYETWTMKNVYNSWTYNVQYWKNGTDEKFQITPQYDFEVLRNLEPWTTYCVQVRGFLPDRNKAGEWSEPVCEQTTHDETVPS
Assay: ELISA, IL-10R2-Fc/His coated
measured.endpoint: Decreased fold of binding to ligand after Conjugating with S48 (fold)

INSERT INTO measurements (binder, measured_value) VALUES
  ('IL-10 Lys119Cys-S48 (ligand, human, UniProt P22301 19-178, looked up, S48 on Cys 119, mature) SPGQGTQSENSCTHFPGNLPNMLRDLRDAFSRVKTFFQMKDQLDNLLLKESLLEDFKGYLGCQALSEMIQFYLEEVMPQAENQDPDIKAHVNSLGENLKTLRLRLRRCHRFLPCENKSCAVEQVKNAFNKLQEKGIYKAMSEFDIFINYIEAYMTMKIRN', 4),
  ('IL-10 Asp25Cys-S48 (ligand, human, UniProt P22301 19-178, looked up, S48 on Cys 25, mature) SPGQGTQSENSCTHFPGNLPNMLRCLRDAFSRVKTFFQMKDQLDNLLLKESLLEDFKGYLGCQALSEMIQFYLEEVMPQAENQDPDIKAHVNSLGENLKTLRLRLRRCHRFLPCENKSKAVEQVKNAFNKLQEKGIYKAMSEFDIFINYIEAYMTMKIRN', 5),
  ('IL-10 Lys99Cys-S48 (ligand, human, UniProt P22301 19-178, looked up, S48 on Cys 99, mature) SPGQGTQSENSCTHFPGNLPNMLRDLRDAFSRVKTFFQMKDQLDNLLLKESLLEDFKGYLGCQALSEMIQFYLEEVMPQAENQDPDIKAHVNSLGENLCTLRLRLRRCHRFLPCENKSKAVEQVKNAFNKLQEKGIYKAMSEFDIFINYIEAYMTMKIRN', 3);

Origin of measurements: patent US20230158141A1
